# target_desc: Recombinant human cathepsin A (Homo sapiens, UniProt P10619)
# Construct: Recombinant human cathepsin A (residues 29-480, with a C-terminal 10-His tag); 10-His (C); purchased R&D Systems 1049-SE
# Sequence (P10619 29-312 limits assumed): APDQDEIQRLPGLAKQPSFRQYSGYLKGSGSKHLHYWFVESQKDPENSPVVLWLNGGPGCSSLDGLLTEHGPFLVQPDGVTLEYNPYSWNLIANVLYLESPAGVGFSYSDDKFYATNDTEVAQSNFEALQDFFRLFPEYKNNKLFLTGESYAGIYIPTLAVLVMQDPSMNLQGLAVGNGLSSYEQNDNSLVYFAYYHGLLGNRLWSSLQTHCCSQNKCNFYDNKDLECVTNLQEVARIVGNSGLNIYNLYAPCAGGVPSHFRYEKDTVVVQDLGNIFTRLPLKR
# Sequence (P10619 327-480 limits assumed): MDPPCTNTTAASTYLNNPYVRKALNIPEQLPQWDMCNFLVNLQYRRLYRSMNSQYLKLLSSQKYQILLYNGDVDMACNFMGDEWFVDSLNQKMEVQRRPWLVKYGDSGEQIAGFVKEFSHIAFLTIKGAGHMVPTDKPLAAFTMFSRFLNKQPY
# procedure_details: Cathepsin A inhibitory activity
# Type: biochemical
# condition_label: recombinant human cathepsin A; read-out: Activity (2): Cathepsin A inhibitory activity, IC50 class
property_measured: IC50

Which IC50 is listed for O=C(O)CC(NC(=O)c1cc(O)n(-c2ccc(Cl)cc2)n1)c1ccc(-c2ccccn2)cc1 (centres unmarked) [Example 515] ?
100 to 1000 nM

Which IC50 is listed for O=C(O)CC(NC(=O)c1cc(O)n(-c2ccc(F)cc2)n1)c1cc(F)ccc1Cl (centres unmarked) [Example 524] ?
100 to 1000 nM

Which IC50 is listed for COc1ccc([C@H](CC(=O)O)NC(=O)c2cc(O)n(-c3ccc(F)cc3)n2)cc1 [Example 435] ?
100 to 1000 nM

Which IC50 is listed for O=C(O)CC(NC(=O)c1cc(O)n(-c2ccccc2Cl)n1)c1cc(Cl)ccc1Cl (centres unmarked) [Example 462] ?
< 100 nM

Which IC50 is listed for O=C(O)CC(NC(=O)c1cc(O)n(-c2ccc(Cl)cc2)n1)c1cccc2c1OC(F)(F)O2 (centres unmarked) [Example 471] ?
100 to 1000 nM

Which IC50 is listed for Cc1ccc([C@H](CC(=O)O)NC(=O)c2cc(O)n(-c3ccc(F)cc3F)n2)cc1 [Example 454] ?
100 to 1000 nM

Which IC50 is listed for Cc1c(F)cccc1C(CC(=O)O)NC(=O)c1cc(O)n(-c2cccc(Cl)c2)n1 (centres unmarked) [Example 508] ?
100 to 1000 nM

Which IC50 is listed for CCC(COC)NC(=O)C[C@H](NC(=O)c1cc(OC)n(-c2ccccc2F)n1)c1ccccc1C (some centres unmarked) [Example 921] ?
1000 to 30000 nM

Which IC50 is listed for COc1cccc(F)c1C(CC(=O)O)NC(=O)c1cc(O)n(-c2ccccc2)n1 (centres unmarked) [Example 441] ?
100 to 1000 nM

Which IC50 is listed for O=C(O)C[C@H](NC(=O)c1cc(O)n(-c2cccc(Cl)c2)n1)c1ccccc1F [Example 422] ?
100 to 1000 nM

Which IC50 is listed for Cc1c(F)cccc1C(CC(=O)O)NC(=O)c1cc(O)n(-c2ccc(Cl)cc2)n1 (centres unmarked) [Example 468] ?
100 to 1000 nM

Which IC50 is listed for O=C(O)CC(NC(=O)c1cc(O)n(-c2ccccc2Cl)n1)c1cc(F)ccc1F (centres unmarked) [Example 459] ?
100 to 1000 nM

Which IC50 is listed for Cc1ccccc1[C@H](CC(=O)O)NC(=O)c1cc(O)n(-c2ccccc2C(F)(F)F)n1 [Example 537] ?
100 to 1000 nM

Which IC50 is listed for O=C(O)CC(NC(=O)c1cc(O)n(-c2ccccc2Cl)n1)c1cc(F)ccc1C(F)(F)F (centres unmarked) [Example 460] ?
100 to 1000 nM

Which IC50 is listed for O=C(O)CC(NC(=O)c1cc(O)n(-c2cccc(Cl)c2)n1)c1cc(F)ccc1F (centres unmarked) [Example 465] ?
100 to 1000 nM

Which IC50 is listed for Cc1ccccc1[C@H](CC(=O)O)NC(=O)c1cc(O)n(-c2ccccc2C)n1 [Example 532] ?
< 100 nM

Which IC50 is listed for Cc1ccccc1-n1nc(C(=O)NC(CC(=O)O)c2ccc(-c3ccc(F)cc3)cc2)cc1O (centres unmarked) [Example 536] ?
< 100 nM

Which IC50 is listed for COc1cccc([C@H](CC(=O)O)NC(=O)c2cc(O)n(-c3cccc(Cl)c3)n2)c1 [Example 413] ?
1000 to 30000 nM

Which IC50 is listed for O=C(O)C[C@H](NC(=O)c1cc(O)n(-c2cccc(F)c2)n1)c1cccc(Cl)c1Cl [Example 428] ?
100 to 1000 nM

Which IC50 is listed for CCC(C)(C)NC(=O)C[C@H](NC(=O)c1cc(OC)n(-c2ccccc2F)n1)c1ccccc1C [Example 917] ?
1000 to 30000 nM

Which IC50 is listed for O=C(O)CC(NC(=O)c1cc(O)n(-c2ccccc2)n1)c1ccccc1Oc1ccccc1 (centres unmarked) [Example 442] ?
1000 to 30000 nM

Which IC50 is listed for O=C(O)CC(NC(=O)c1cc(O)n(-c2ccc(F)cc2)n1)c1ccc(-c2ccccn2)cc1 (centres unmarked) [Example 527] ?
100 to 1000 nM

Which IC50 is listed for O=C(O)CC(NC(=O)c1cc(O)n(-c2ccccc2)n1)c1cc(Cl)ccc1Cl (centres unmarked) [Example 444] ?
< 100 nM

Which IC50 is listed for Cc1ccc(F)cc1C(CC(=O)O)NC(=O)c1cc(O)n(-c2ccccc2)n1 (centres unmarked) [Example 497] ?
100 to 1000 nM

Which IC50 is listed for O=C(O)C[C@H](NC(=O)c1cc(O)n(-c2cccc(Cl)c2)n1)c1cccc(Cl)c1Cl [Example 412] ?
1000 to 30000 nM

Which IC50 is listed for O=C(O)CC(NC(=O)c1cc(O)n(-c2cccnc2)n1)c1ccc(-c2ccccc2)cc1 (centres unmarked) [Example 440] ?
1000 to 30000 nM

Which IC50 is listed for N#Cc1ccc([C@H](CC(=O)O)NC(=O)c2cc(O)n(-c3cccc(Cl)c3)n2)cc1 [Example 410] ?
1000 to 30000 nM

Which IC50 is listed for COc1cccc([C@H](CC(=O)O)NC(=O)c2cc(O)n(-c3cccc(F)c3)n2)c1OC [Example 431] ?
100 to 1000 nM

Which IC50 is listed for CN(C)c1ccc(C(CC(=O)O)NC(=O)c2cc(O)n(-c3ccccc3Cl)n2)c(Cl)c1 (centres unmarked) [Example 456] ?
1000 to 30000 nM

Which IC50 is listed for O=C(O)C[C@H](NC(=O)c1cc(O)n(-c2ccccc2)n1)c1ccccc1Cl [Example 446] ?
100 to 1000 nM

Which IC50 is listed for O=C(O)C[C@H](NC(=O)c1cc(O)n(-c2cccc(Cl)c2)n1)c1ccc(F)cc1 [Example 411] ?
1000 to 30000 nM

Which IC50 is listed for O=C(O)C[C@H](NC(=O)c1cc(O)n(-c2ccccc2Cl)n1)c1ccccc1Cl [Example 507] ?
100 to 1000 nM
